targetOrTestSystem: GalNAc(b1-3)Gal(a1-4)Gal(b1-4)GlcNAc
assayNotes: glycan array binding signal (z-score within array); higher = stronger binding
conditionSummary: glycan notation: IUPAC condensed, linker removed
This excerpt belongs to a sample that is enriched for the strongest signals.
Kindly supply the reported glycan array binding signal (z-score) values for the records listed here.
Answers are plain numbers.

As a guide, the following entries are already answered.
# binder, value
measured = [
    ("CSA (Cytisus scoparius), P29257 (protein) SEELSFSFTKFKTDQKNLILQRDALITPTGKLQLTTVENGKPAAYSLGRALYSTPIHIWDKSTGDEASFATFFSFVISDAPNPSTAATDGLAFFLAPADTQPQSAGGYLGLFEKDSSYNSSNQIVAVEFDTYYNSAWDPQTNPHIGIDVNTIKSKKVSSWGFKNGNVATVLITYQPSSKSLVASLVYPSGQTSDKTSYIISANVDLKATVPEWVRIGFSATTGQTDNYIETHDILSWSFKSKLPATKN", 3.35),
    ("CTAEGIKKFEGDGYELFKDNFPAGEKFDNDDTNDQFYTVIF [MUB40 (Lactobacillus reuteri)]", -0.189),
]

Query string: Tell me measured glycan array binding signal (z-score) for AT1G15820(2) (Arabidopsis thaliana), Q9LMQ2 (protein) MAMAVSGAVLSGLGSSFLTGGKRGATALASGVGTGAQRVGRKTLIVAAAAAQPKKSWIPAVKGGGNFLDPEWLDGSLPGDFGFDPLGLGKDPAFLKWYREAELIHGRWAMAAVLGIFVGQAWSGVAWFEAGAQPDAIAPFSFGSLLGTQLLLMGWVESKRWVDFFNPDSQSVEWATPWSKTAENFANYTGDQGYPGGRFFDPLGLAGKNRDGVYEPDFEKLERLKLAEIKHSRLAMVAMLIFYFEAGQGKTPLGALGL please.
Result string: 3.99
